Origin of measurements: ChEMBL document CHEMBL2169870

System: NIH3T3
Assay: Cytotoxicity against mouse NIH/3T3 cells after 48 hrs by MTT assay
Assay type: cell-based
Conditions: Mus musculus, NIH3T3, 48 h
pIC50: −log10 of the molar value.
parameter measured: pIC50

[ask] # input compound: CC(C)C[C@H](NC(=O)[C@@H](O)[C@H](N)Cc1ccccc1)C(=O)O ; wanted: its pIC50
[reply] < 3.00

----------
Target: Aminopeptidase N (Sus scrofa, UniProt P15145)
Sequence (P15145 whole entry): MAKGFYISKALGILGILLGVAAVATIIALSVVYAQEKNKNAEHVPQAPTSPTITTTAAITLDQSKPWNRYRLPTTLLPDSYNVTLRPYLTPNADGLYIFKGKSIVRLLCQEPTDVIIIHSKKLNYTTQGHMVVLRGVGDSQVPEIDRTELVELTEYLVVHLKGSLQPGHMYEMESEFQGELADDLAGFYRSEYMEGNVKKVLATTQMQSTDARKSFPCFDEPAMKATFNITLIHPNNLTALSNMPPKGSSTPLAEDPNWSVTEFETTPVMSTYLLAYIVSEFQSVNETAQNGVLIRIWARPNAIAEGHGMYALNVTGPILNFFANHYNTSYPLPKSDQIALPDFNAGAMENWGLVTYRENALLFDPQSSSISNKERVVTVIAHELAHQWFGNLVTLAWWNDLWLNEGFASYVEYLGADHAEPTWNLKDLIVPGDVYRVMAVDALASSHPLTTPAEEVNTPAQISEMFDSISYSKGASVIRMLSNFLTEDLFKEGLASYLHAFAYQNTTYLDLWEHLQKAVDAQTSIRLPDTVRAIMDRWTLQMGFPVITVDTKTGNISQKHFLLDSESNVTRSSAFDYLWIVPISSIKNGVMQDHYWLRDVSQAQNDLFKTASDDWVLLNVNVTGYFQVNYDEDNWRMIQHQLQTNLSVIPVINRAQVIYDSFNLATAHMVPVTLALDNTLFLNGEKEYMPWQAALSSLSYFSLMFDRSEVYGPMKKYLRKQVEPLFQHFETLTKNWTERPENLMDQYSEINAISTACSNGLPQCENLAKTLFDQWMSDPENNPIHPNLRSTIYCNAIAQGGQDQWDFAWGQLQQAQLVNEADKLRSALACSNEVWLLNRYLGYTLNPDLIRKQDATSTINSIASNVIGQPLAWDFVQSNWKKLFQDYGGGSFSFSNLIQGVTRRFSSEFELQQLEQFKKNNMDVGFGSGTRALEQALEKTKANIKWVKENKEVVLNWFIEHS
parameter measured: IC50

INSERT INTO assay_data (structure_string, tested_system, parameter_measured, measured) VALUES
  ('NC(=O)c1ccccc1NC(=O)c1ccccc1C(=O)O', 'Aminopeptidase N (Sus scrofa, UniProt P15145)', 'IC50', '66.3 µM'),
  ('CC[C@H](N)[C@H](O)c1ccc(OC)cc1', 'Aminopeptidase N (Sus scrofa, UniProt P15145)', 'IC50', '> 1000 µM'),
  ('O=C1NC(=O)C(=NNc2cc([N+](=O)[O-])ccc2O)C(=O)N1', 'Aminopeptidase N (Sus scrofa, UniProt P15145)', 'IC50', '> 1000 µM');

[ask] What value of IC50 on Aminopeptidase N (Sus scrofa, UniProt P15145) does CCOC(=O)/C(N)=N/NS(=O)(=O)c1ccc(C)cc1 have?
[reply] 321 µM

[ask] What value of IC50 on Aminopeptidase N (Sus scrofa, UniProt P15145) does CC(=O)NC(=S)NNC(=O)COc1ccc(Br)cc1 have?
[reply] 227 µM

[ask] What value of IC50 on Aminopeptidase N (Sus scrofa, UniProt P15145) does C=CCN/C(S)=N/C=C1C(=O)NC(=O)NC1=O have?
[reply] 65.9 µM

[ask] What value of IC50 on Aminopeptidase N (Sus scrofa, UniProt P15145) does O=C1Nc2ccccc2/C1=C1/SC(=S)N(NC(=O)c2cccc(O)c2)C1=O have?
[reply] 170 µM

[ask] What value of IC50 on Aminopeptidase N (Sus scrofa, UniProt P15145) does O=C(O)COc1ccc(/C=N/n2c(COc3ccccc3)nc3ccccc3c2=O)cc1 have?
[reply] 188 µM

----------
// reported IC50 for each item listed
Biological target: Aminopeptidase N (Sus scrofa)
Sequence (P15145 whole entry): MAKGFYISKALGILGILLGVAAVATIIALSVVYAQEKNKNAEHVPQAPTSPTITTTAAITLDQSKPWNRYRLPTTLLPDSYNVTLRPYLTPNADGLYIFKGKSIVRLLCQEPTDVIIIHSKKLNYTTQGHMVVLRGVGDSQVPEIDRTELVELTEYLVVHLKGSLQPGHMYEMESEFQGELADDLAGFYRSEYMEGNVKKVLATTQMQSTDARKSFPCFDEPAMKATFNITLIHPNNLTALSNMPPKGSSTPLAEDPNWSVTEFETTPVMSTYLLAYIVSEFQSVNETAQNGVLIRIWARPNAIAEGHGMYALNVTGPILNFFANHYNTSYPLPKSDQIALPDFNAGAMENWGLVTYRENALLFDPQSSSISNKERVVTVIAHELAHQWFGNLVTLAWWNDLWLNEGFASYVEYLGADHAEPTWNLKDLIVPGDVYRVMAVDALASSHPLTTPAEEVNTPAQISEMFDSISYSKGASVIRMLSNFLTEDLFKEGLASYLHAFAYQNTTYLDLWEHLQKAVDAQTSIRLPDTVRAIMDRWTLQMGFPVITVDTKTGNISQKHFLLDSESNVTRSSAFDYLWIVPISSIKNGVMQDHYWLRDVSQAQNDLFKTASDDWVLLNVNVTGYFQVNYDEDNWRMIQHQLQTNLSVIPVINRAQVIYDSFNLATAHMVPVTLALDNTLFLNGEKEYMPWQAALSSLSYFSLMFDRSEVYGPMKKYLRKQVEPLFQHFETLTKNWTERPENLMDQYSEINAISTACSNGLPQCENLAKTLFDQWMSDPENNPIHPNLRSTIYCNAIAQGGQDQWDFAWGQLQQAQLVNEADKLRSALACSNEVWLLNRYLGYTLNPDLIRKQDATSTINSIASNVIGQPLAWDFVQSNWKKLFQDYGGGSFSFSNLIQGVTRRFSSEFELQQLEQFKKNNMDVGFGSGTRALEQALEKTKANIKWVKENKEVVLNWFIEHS

INSERT INTO results (structure_string, tested_system, parameter_measured, measured) VALUES
  ('O=C1NC(=O)C(=NNc2cccc(C(=O)O)c2)C(=O)N1', 'Aminopeptidase N (Sus scrofa)', 'IC50', '> 1000 µM'),
  ('NS(=O)(=O)c1ccc(-n2cccc2/C=C2/C(=O)NN(c3ccc(Cl)cc3)C2=O)cc1', 'Aminopeptidase N (Sus scrofa)', 'IC50', '> 1000 µM');

Shift focus to the following entry.
[ask] # input molecule: COc1cc(/C=C2/C(=O)NC(=O)N(Cc3ccc(F)cc3)C2=O)cc(OC)c1O ; wanted: its IC50
[reply] 78.9 µM
